Target system: recombinant guanylate cyclase reporter cell line (Rattus norvegicus, UniProt P19686+P20595)
Construct: expressed in transfected cells
Sequence (P19686 whole entry): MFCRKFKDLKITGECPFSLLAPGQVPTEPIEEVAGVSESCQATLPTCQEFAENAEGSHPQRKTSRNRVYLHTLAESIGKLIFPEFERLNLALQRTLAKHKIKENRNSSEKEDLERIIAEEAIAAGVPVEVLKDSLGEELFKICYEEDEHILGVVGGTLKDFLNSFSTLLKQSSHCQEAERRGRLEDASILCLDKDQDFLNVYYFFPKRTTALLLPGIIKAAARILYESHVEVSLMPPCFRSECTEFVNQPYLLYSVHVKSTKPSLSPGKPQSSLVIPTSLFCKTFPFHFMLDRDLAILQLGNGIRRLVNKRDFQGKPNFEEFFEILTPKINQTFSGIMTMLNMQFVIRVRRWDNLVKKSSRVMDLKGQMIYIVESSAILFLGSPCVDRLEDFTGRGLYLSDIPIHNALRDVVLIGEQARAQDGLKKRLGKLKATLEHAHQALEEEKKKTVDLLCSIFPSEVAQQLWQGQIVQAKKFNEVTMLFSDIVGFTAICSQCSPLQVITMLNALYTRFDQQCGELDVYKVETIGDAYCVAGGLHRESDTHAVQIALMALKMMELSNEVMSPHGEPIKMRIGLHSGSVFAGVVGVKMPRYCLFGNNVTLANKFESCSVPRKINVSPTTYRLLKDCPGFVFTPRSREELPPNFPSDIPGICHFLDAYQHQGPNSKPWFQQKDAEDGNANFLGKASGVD
Sequence (P20595 whole entry): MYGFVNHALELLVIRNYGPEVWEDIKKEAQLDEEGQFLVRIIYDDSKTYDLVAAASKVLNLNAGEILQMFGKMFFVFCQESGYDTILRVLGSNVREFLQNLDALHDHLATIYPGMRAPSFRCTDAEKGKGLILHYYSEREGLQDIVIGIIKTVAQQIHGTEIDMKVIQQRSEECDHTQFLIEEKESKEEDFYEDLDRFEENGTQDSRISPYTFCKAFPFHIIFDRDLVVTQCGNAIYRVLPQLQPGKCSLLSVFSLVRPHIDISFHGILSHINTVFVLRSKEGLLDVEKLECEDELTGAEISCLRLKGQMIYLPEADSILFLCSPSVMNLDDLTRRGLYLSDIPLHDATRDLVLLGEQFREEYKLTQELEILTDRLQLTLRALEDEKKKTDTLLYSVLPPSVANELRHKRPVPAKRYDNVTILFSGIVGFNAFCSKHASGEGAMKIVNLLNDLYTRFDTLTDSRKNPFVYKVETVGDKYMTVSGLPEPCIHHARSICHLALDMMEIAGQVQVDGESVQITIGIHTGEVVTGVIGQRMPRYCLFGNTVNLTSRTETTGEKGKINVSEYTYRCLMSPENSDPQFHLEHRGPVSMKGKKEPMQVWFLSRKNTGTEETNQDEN
Test protocol: Effect on a recombinant guanylate cyclase reporter cell line
Format: cell-based
Condition info: MEC = minimum effective concentration; in some cases means of individual determinations
Procedure: B-2. Effect on a Recombinant Guanylate Cyclase Reporter Cell Line The cellular activity of the compounds of the invention is determined using a recombinant guanylate cyclase reporter cell line, as described in F. Wunder et al., Anal. Biochem. 2005, 339, 104-112. Representative values (MEC=minimum effective concentration) for the compounds of the invention are shown in the table below (Table 1B; in some cases as means of individual determinations): […]
Outcome measure: MEC (µM)

I: COCCNC(=O)c1nc(-c2nn(Cc3ccccc3F)c3ncccc23)nc2c1C(C)(C)C(=O)N2 [Example 127]
II: CC1(C)C(=O)Nc2nc(-c3nn(Cc4ccccc4F)c4ncccc34)nc(C(=O)NCC(N)CC(F)(F)F)c21 (racemic) [Example 136]
III: CCCCCNC(=O)c1nc(-c2nn(Cc3ccccc3F)c3ncccc23)nc2c1C(C)(C)C(=O)N2 [Example 131]
IV: CC1(C)C(=O)Nc2nc(-c3nn(Cc4ccccc4F)c4ncc(F)cc34)nc(C(=O)N3CCCC3)c21 (single isomer, unassigned) [Example 54]
V: CC(N)(CNC(=O)c1nc(-c2nn(Cc3ncccc3F)c3ncc(F)cc23)nc2c1C(C)(C)C(=O)N2)CC(F)F (single isomer, unassigned; enantiomer a) [Example 55]
Query block: // ascending sort on MEC for the entries above In your reply, arrange the labels in the requested order.
Result block: IV, I, III, II, V

A: CNC(=O)c1nc(-c2nn(Cc3ccccc3F)c3ncccc23)nc2c1C(C)(C)C(=O)N2 [Example 86]
B: CN(C)CCNC(=O)c1nc(-c2nn(Cc3ccccc3F)c3ncccc23)nc2c1C(C)(C)C(=O)N2 [Example 128]
C: CC1(C)C(=O)Nc2nc(-c3nn(Cc4ccccc4F)c4ncccc34)nc(C(=O)Nc3cn[nH]c3)c21 [Example 100]
D: CC(N)(CNC(=O)c1nc(-c2nn(Cc3ncccc3F)c3ncc(F)cc23)nc2c1C(C)(C)C(=O)N2)CC(F)F (single isomer, unassigned) [Example 56]
Query block: Put the entries in order of MEC, starting with the largest number. In your reply, arrange the labels in the requested order.
Result block: D, B, C, A
(D: 3 µM, B: 1 µM, C: 0.3 µM, A: 0.1 µM)

1: CC1(C)C(=O)Nc2nc(-c3nn(Cc4ccccc4F)c4ncc(F)cc34)nc(C(=O)NCC3(O)CC3)c21 [Example 27]
2: CC1(C)C(=O)Nc2nc(-c3nn(Cc4ccccc4F)c4ncccc34)nc(C(=O)Nc3ccncc3)c21 [Example 116]
Query block: Field: lower MEC | Options: 1 / 2 Write down the label attached to your selection.
Result block: 1

1: CC1(C)C(=O)Nc2nc(-c3nn(Cc4ccccc4F)c4ncccc34)nc(C(=O)NC3(C4CC4)CC3)c21 [Example 82]
2: CCCCNC(=O)c1nc(-c2nn(Cc3ccccc3F)c3ncccc23)nc2c1C(C)(C)C(=O)N2 [Example 121]
Query block: Field: lower MEC | Options: 1 / 2 Write down the label attached to your selection.
Result block: 1
(1: 0.1 µM, 2: 0.3 µM)

---

Target system: recombinant guanylate cyclase reporter cell line (Rattus norvegicus, UniProt P19686+P20595)
Construct: expressed in transfected cells
Test protocol: Effect on a recombinant guanylate cyclase reporter cell line
Format: cell-based
Condition info: MEC = minimum effective concentration; in some cases means of individual determinations
Outcome measure: MEC (µM)

Recorded results for 3 molecules are shown here.
- Cc1nc2c(cc1F)c(-c1nc3c(c(C(N)=O)n1)C(C)(C(F)(F)F)C(=O)N3)nn2Cc1ccccc1F (single isomer, unassigned; ent-2) [Example 14]: 0.03
- CC(CNC(=O)c1nc(-c2nn(Cc3ccccc3F)c3ncccc23)nc2c1C(C)(C)C(=O)N2)N(C)C (racemic): 1
- CC1(C)C(=O)Nc2nc(-c3nn(Cc4ccccc4F)c4ncccc34)nc(C(=O)NCc3ccccn3)c21: 0.1

1: CC(NC(=O)c1nc(-c2nn(Cc3ccccc3F)c3ncccc23)nc2c1C(C)(C)C(=O)N2)C1CC1 (racemic)
2: Cc1nc2c(cc1F)c(-c1nc3c(c(C(N)=O)n1)C(C)(C)C(=O)N3)nn2Cc1ccccc1F
Query block: Field: lower MEC | Options: 1 / 2 Write down the label attached to your selection.
Result block: 1
(1: 0.1 µM, 2: 0.3 µM)
